- Tested on: OVCAR-3
- ASSAY_OVERVIEW: NCI tumour cell line growth inhibition, 48 h
Active and inactive are the calls of the source. Cut-off read from the data, not from the text of the source: active = GI50 up to about 1.1 µM and inactive = higher.
# valid calls are label 1 = active, label 0 = inactive; nothing else

Prompt: What outcome does the record of this test show for CCN(CC)C(=O)CNC(=O)OC(C)(C)C ?
Completion: label 0

Prompt: What outcome does the record of this test show for O=C1c2ccccc2C(=O)c2sc(Nc3cccc(Cl)c3)nc21 ?
Completion: label 1

Prompt: What outcome does the record of this test show for COC(=O)c1sc2c(c1C(=O)OC)/C(=N/c1ccc(OC)cc1)S/C2=N\c1ccc(OC)cc1 ?
Completion: label 1

Prompt: What outcome does the record of this test show for CCNc1nc2c(ncn2C2CC(O)C(COP(=O)(O)O)O2)c(=O)[nH]1 (configuration not stated) ?
Completion: label 0

Prompt: What outcome does the record of this test show for O=C1C[C@H](c2ccccc2)C2(C(=O)c3ccccc3C2=O)[C@@H](c2ccccc2)C1 ?
Completion: label 0

Prompt: What outcome does the record of this test show for CC(C)C(N)(C(=O)O)c1ccccc1 (configuration not stated) ?
Completion: label 0

Prompt: What outcome does the record of this test show for Cc1ncc([N+](=O)[O-])n1CC(O)Cn1cnc([N+](=O)[O-])n1 (configuration not stated) ?
Completion: label 0

Prompt: What outcome does the record of this test show for COc1cc2c(cc1[N+](=O)[O-])C(=O)C(Br)(Br)CCC2 ?
Completion: label 0

Prompt: What outcome does the record of this test show for CSC1=N/C(=C\c2ccc(Cl)cc2)C(=O)N1CN1CCOCC1 ?
Completion: label 0

Prompt: What outcome does the record of this test show for COC(=O)c1c2c(cc3c1CC1(Cc4cc5c(cc4C1=O)CCC5)C3)CCC2 (configuration not stated) ?
Completion: label 0

Prompt: What outcome does the record of this test show for Cc1cnc2c(C)ccc([N+](=O)[O-])c2c1NCCCN(C)C ?
Completion: label 0

Prompt: What outcome does the record of this test show for COC(=O)[C@H](C)[C@H]1CC[C@@](C)([C@H]2CC3C(C)(C)[C@H]4CCC(C)=C[C@H]4C[C@@]3(C)O2)OO1 (some centres not stated) ?
Completion: label 0

Prompt: What outcome does the record of this test show for CCC1(CC)C(=O)NC(=O)NC1=S ?
Completion: label 0

Prompt: What outcome does the record of this test show for O=C(O)Cn1ccc(=O)c2cc([N+](=O)[O-])ccc21 ?
Completion: label 0

Prompt: What outcome does the record of this test show for Cc1ccc(C(CC(=O)C(C)(C)CN2CCCCC2)SCCS(=O)(=O)O)cc1 (configuration not stated) ?
Completion: label 0

Prompt: What outcome does the record of this test show for CSc1nc(NC2OCC(OC(C)=O)C(OC(C)=O)C2OC(C)=O)c2c(n1)OCC2=O (configuration not stated) ?
Completion: label 0

Prompt: What outcome does the record of this test show for O=C1CSC2(CCN(CCCN3c4ccccc4Sc4ccc(Cl)cc43)CC2)N1 ?
Completion: label 0

Prompt: What outcome does the record of this test show for [N-]=[N+]=Nc1cc(=O)n2c3c(cccc13)CCC2 ?
Completion: label 0

Prompt: What outcome does the record of this test show for COCc1cc2c(s1)C(=O)C1=C(C2=O)C2(C=C(Br)C(=O)C(Br)=C2)CCN1 ?
Completion: label 1

Prompt: What outcome does the record of this test show for CN(C)c1nncc2[nH]nnc12 ?
Completion: label 0

Prompt: What outcome does the record of this test show for O=C1/C(=C/c2ccccc2)CN(C(=O)C(F)(F)F)C/C1=C\c1ccccc1 ?
Completion: label 0

Prompt: What outcome does the record of this test show for CCOC(=O)CNC(=O)N(CC)C12CC3CC(CC(C3)C1)C2 ?
Completion: label 0
